Target: human D3 dopamine receptors (Homo sapiens, UniProt P35462)
Sequence (P35462 whole entry): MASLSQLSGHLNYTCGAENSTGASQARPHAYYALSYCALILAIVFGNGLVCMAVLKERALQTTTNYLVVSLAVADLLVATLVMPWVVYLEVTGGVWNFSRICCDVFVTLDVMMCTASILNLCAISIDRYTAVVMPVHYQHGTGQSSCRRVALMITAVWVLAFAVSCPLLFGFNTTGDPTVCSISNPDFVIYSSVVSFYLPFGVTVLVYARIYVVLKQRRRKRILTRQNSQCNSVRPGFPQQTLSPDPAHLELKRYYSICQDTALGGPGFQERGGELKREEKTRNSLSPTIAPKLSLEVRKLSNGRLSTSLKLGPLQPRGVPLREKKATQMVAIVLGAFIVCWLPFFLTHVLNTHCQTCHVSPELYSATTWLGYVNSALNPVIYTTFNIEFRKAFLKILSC
Assay: competitive radioligand binding with [3H]LS-3-134, hD3 HEK-293
Conditions: Ki values [^3H]LS-3-134 hD3-HEK 293, mean ± S.E.M., n ≥ 3, Cheng & Prusoff
Value kind: pKi
Notebook: values listed as pKi are -log10 of the concentration (mol/L).

Input: # get_value(readout='pKi', item= COc1ccc2[nH]cc(CN3CCC(O)(c4ccc(SC)cc4)CC3)c2c1 )
Output: 6.49

* * *

Target: rat D3 dopamine receptors (Rattus norvegicus)
Sequence (P19020 whole entry): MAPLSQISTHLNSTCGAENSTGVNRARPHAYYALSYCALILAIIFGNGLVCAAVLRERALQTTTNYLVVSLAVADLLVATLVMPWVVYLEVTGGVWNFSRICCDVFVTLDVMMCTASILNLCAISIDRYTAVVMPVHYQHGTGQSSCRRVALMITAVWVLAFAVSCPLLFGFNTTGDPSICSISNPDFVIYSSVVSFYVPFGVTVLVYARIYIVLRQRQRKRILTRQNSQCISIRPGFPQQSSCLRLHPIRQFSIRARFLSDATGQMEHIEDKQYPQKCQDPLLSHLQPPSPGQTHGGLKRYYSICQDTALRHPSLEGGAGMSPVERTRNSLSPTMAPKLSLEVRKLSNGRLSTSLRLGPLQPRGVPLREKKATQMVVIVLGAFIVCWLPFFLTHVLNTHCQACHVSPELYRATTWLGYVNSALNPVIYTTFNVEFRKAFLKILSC
Assay: competitive radioligand binding with [3H]LS-3-134, rD3 HEK-293
Value kind: pKi
Notebook: values listed as pKi are -log10 of the concentration (mol/L).

Input: # get_value(readout='pKi', item= COc1ccccc1N1CCN(CCCCNC(=O)c2ccc(N(C)C)cc2)CC1 )
Output: 8.24

* * *

Molecular target: human D3 dopamine receptors (Homo sapiens, UniProt P35462)
Experiment: competitive radioligand binding with [3H]LS-3-134, hD3 HEK-293
Value kind: Ki (nM)
Please state the figure in nM; there is no need to write the unit.

Input: # get_value(readout='Ki', item= COc1ccccc1N1CCN(CCCCNC(=O)c2ccc(N(C)C)cc2)CC1 [WC 10] )
Output: 1.25

* * *

Would you kindly list pKi for each of these compounds?
Molecular target: rat striatal tissue (Rattus norvegicus)
Sequence (P19020 whole entry): as the sequence (P19020 whole entry) above
Notebook: values listed as pKi are -log10 of the concentration (mol/L).

Input: # get_value(readout='pKi', item= COc1ccc2[nH]cc(CN3CCC(O)(c4ccc(SC)cc4)CC3)c2c1 )
Output: 6.49

Input: Continue with COc1ccccc1N1CCN(CCCCNC(=O)c2ccc(N(C)C)cc2)CC1
Output: 8.61

Input: Continue with CCc1cc(Cl)c(OC)c(C(=O)NC[C@@H]2CCCN2CC)c1O [Eticlopride]
Output: 9.43
